Source listed as paper PMC8537140.

I'd be grateful if you could share measured pKi for these entries.
target-entity: UniProt:P22748
Sequence (P22748 19-312): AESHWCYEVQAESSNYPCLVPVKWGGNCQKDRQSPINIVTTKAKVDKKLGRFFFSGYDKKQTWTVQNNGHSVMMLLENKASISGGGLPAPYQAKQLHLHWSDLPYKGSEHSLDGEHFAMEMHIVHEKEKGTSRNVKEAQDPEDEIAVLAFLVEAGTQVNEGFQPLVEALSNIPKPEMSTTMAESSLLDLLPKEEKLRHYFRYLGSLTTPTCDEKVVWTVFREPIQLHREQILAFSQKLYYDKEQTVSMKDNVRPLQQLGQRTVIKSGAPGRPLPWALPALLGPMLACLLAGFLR
method: stopped-flow CO2 hydrase assay, hCA IV
experimental-setup: recombinant enzyme, 15 min preincubation, pH 8.3, mean from 3 assays
// field semantics: pKi = negative decimal log of concentration (mol/L)

Enquiry: Dear colleague, I am looking for the recorded pKi of the following compound: NS(=O)(=O)c1ccc(CCNc2nc(NC(Cc3ccc(O)cc3)C(=O)O)nc(NC(Cc3ccc(O)cc3)C(=O)O)n2)cc1 (stereo not shown) [compound 19]
Return: 6.06

Enquiry: Given NC(=O)CCC(Nc1nc(Nc2ccc(S(N)(=O)=O)cc2)nc(NC(CCC(N)=O)C(=O)O)n1)C(=O)O (stereo not shown) [compound 10] , state its recorded pKi.
Return: 5.08

Enquiry: Which value of pKi has been reported for NS(=O)(=O)c1ccc(Nc2nc(N[C@@H](Cc3c[nH]c4ccccc34)C(=O)O)nc(N[C@@H](Cc3c[nH]c4ccccc34)C(=O)O)n2)cc1 [compound 6] in the records?
Return: 7.23

###

target-entity: hCA II (Homo sapiens, UniProt P00918)
method: stopped-flow CO2 hydrase assay, hCA II
experimental-setup: recombinant enzyme, 15 min preincubation, pH 8.3, mean from 3 assays
pKi: −log10 of the molar value.
Outcome label depends on pKi relative to 7: at/above gives 1, below gives 0.

Enquiry: Say whether NS(=O)(=O)c1ccc(CCNc2nc(NC(Cc3ccc(O)cc3)C(=O)O)nc(NC(Cc3ccc(O)cc3)C(=O)O)n2)cc1 (stereo not drawn) [compound 19] shows pKi of 7 or more.
Return: 1

Enquiry: Does the reported pKi for NS(=O)(=O)c1ccc(CNc2nc(NC(Cc3c[nH]c4ccccc34)C(=O)O)nc(NC(Cc3c[nH]c4ccccc34)C(=O)O)n2)cc1 (stereo not drawn) [compound 13] fall at or above the 7 mark?
Return: 1

Enquiry: Does pKi meet or surpass 7 for NS(=O)(=O)c1ccc(CNc2nc(NC(CO)C(=O)O)nc(NC(CO)C(=O)O)n2)cc1 (stereo not drawn) [compound 14] ?
Return: 0

Enquiry: Dear colleague, could you confirm whether NC(=O)CC(Nc1nc(NCc2ccc(S(N)(=O)=O)cc2)nc(NC(CC(N)=O)C(=O)O)n1)C(=O)O (stereo not drawn) [compound 16] has pKi at or above 7?
Return: 0

Enquiry: Quick check, pKi >= 7? NC(=O)CCC(Nc1nc(Nc2ccc(S(N)(=O)=O)cc2)nc(NC(CCC(N)=O)C(=O)O)n1)C(=O)O (stereo not drawn) [compound 10]
Return: 0

Enquiry: Has CC(O)C(Nc1nc(NCCc2ccc(S(N)(=O)=O)cc2)nc(NC(C(=O)O)C(C)O)n1)C(=O)O (stereo not drawn) [compound 22] a recorded pKi greater than or equal to 7?
Return: 0

Enquiry: # bool: pKi of NC(=O)CCC(Nc1nc(NCCc2ccc(S(N)(=O)=O)cc2)nc(NC(CCC(N)=O)C(=O)O)n1)C(=O)O (stereo not drawn) [compound 24] >= 7
Return: 0

Enquiry: Please indicate if the recorded pKi for NS(=O)(=O)c1ccc(Nc2nc(NC(Cc3ccc(O)cc3)C(=O)O)nc(NC(Cc3ccc(O)cc3)C(=O)O)n2)cc1 (stereo not drawn) [compound 5] meets or exceeds 7.
Return: 1

Enquiry: Reported pKi reaches at least 7 for NS(=O)(=O)c1ccc(CCNc2nc(NC(Cc3c[nH]c4ccccc34)C(=O)O)nc(NC(Cc3c[nH]c4ccccc34)C(=O)O)n2)cc1 (stereo not drawn) [compound 20] ?
Return: 1

Enquiry: Item CC(Nc1nc(Nc2ccc(S(N)(=O)=O)cc2)nc(NC(C)C(=O)O)n1)C(=O)O (stereo not drawn) [compound 4] with pKi of 7 or above?
Return: 0

Enquiry: Decide: is the reported value of pKi for CC(Nc1nc(NCc2ccc(S(N)(=O)=O)cc2)nc(NC(C)C(=O)O)n1)C(=O)O (stereo not drawn) [compound 11] equal to or greater than 7?
Return: 0

Enquiry: Is reported pKi greater than or equal to 7 here: CC(Nc1nc(NCCc2ccc(S(N)(=O)=O)cc2)nc(NC(C)C(=O)O)n1)C(=O)O (stereo not drawn) [compound 18]
Return: 0

Enquiry: Answer whether pKi of NS(=O)(=O)c1ccc(CNc2nc(NC(Cc3ccc(O)cc3)C(=O)O)nc(NC(Cc3ccc(O)cc3)C(=O)O)n2)cc1 (stereo not drawn) [compound 12] is greater than or equal to 7.
Return: 1

Enquiry: Is the recorded value of pKi equal to or greater than 7 for this molecule? NC(=O)CCC(Nc1nc(NCc2ccc(S(N)(=O)=O)cc2)nc(NC(CCC(N)=O)C(=O)O)n1)C(=O)O (stereo not drawn) [compound 17]
Return: 0

Enquiry: Identify whether the reported pKi of the following molecule is 7 or greater: NS(=O)(=O)c1ccc(Nc2nc(NC(CO)C(=O)O)nc(NC(CO)C(=O)O)n2)cc1 (stereo not drawn) [compound 7]
Return: 0

Enquiry: Quick check: does NS(=O)(=O)c1ccc(CCNc2nc(NC(CO)C(=O)O)nc(NC(CO)C(=O)O)n2)cc1 (stereo not drawn) [compound 21] have pKi greater than or equal to 7?
Return: 0

Enquiry: # check: pKi of NC(=O)CC(Nc1nc(Nc2ccc(S(N)(=O)=O)cc2)nc(NC(CC(N)=O)C(=O)O)n1)C(=O)O (stereo not drawn) [compound 9] is greater than or equal to 7
Return: 0

Enquiry: Is pKi at least 7? Consider NS(=O)(=O)c1ccc(Nc2nc(N[C@@H](Cc3c[nH]c4ccccc34)C(=O)O)nc(N[C@@H](Cc3c[nH]c4ccccc34)C(=O)O)n2)cc1 [compound 6]
Return: 1

Enquiry: Could you please find out whether CC(O)C(Nc1nc(Nc2ccc(S(N)(=O)=O)cc2)nc(NC(C(=O)O)C(C)O)n1)C(=O)O (stereo not drawn) [compound 8] has pKi that meets 7 or exceeds it?
Return: 0
